meta.source: patent US20190271705A1

Target: VEGFR1-pY1213mod
Assay: fluorescence polarization
endpoint: pKd
Remember, pKd is on a log scale: it is -log10 of the molar concentration.

Recorded results for 2 binders are shown here.
>>> quantitative_readout("T8V (designed binder) MKIEEHHHHHHSSGRENLYFQGGAAQPAAPVDSIQAEEWYFGKLGRKDAERQLLSFGNPRGTFLIRESETVKGAYSLSIRDWDDMKGDHVKHYKIRKLDNGGYYITTRAQFETLQQLVQHYSERAAGLSSRLVVPSHKGAAA")
4.62
>>> quantitative_readout("K2E T8V S10A K15I (designed binder) MKIEEHHHHHHSSGRENLYFQGGAAQPAAPVDSIQAEEWYFGKLGREDAERQLLSFGNPRGTFLIRESETVKGAYALSIRDWDDMKGDHVKHYIIRKLDNGGYYITTRAQFETLQQLVQHYSERAAGLSSRLVVPSHKGAAA")
6.24

Here is the next item to consider.
// lookup pKd for T8V S10A K15I (designed binder) MKIEEHHHHHHSSGRENLYFQGGAAQPAAPVDSIQAEEWYFGKLGRKDAERQLLSFGNPRGTFLIRESETVKGAYALSIRDWDDMKGDHVKHYIIRKLDNGGYYITTRAQFETLQQLVQHYSERAAGLSSRLVVPSHKGAAA
6.39
